Flag rule - melting point less than 200 °C flags Met; the remaining entries get Not met.

melting point under 200 °C? Item: "CCOC(=O)CCCNC(=O)Nc1nc2ccccc2n1C"
Met

melting point under 200 °C? Item: "O=C(NCCO)Nc1nc2ccccc2s1"
Not met

melting point under 200 °C? Item: "CCOC(=O)CCNC(=O)Nc1nc2ccccc2n1C"
Met

melting point under 200 °C? Item: "O=C([O-])CCNC(=O)Nc1nc2ccccc2s1.[K+]"
Not met

melting point under 200 °C? Item: "CCOC(=O)CNC(=O)Nc1nc2ccccc2n1C"
Met

melting point under 200 °C? Item: "CCCCOC(=O)CNC(=O)Nc1nc2ccccc2s1"
Not met

melting point under 200 °C? Item: "O=C(O)CNC(=O)Nc1nc2ccc(Cl)cc2s1"
Not met

melting point under 200 °C? Item: "O=C([O-])CNC(=O)Nc1nc2ccc(Cl)cc2s1.[K+]"
Not met
